EXPERIMENTAL_SYSTEM: CYP3A4 (Homo sapiens, UniProt P08684)
Sequence (P08684 whole entry): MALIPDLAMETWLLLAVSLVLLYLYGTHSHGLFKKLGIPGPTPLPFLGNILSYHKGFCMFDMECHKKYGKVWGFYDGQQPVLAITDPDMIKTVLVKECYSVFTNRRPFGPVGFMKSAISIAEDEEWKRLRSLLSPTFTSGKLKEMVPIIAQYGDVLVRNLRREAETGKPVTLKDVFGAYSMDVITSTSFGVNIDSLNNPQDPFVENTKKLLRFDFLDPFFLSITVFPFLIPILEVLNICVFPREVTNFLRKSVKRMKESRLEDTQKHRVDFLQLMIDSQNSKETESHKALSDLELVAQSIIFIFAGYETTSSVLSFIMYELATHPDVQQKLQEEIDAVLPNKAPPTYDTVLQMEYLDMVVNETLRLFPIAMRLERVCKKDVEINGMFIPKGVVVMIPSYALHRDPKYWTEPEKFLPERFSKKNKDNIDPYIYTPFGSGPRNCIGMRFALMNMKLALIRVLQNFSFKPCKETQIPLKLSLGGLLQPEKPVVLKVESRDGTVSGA
PROTOCOL_TEXT: Time dependent inhibition of CYP3A4 assessed as conversion of testosterone to 6-beta-hydroxytestosterone at 10 uM relative to control
Type: ADME
APPLIED_CONDITIONS: probe testosterone
QUANTITY_MEASURED: inhibition at 10 µM (%)

Example results:
I am curious: what inhibition at 10 µM value has been reported for COCCCc1cc(CN(C(=O)[C@H]2CNCC[C@@H]2c2ccn(C)c(=O)c2)C2CC2)c2ccccc2n1 ?
13

I am curious: what inhibition at 10 µM value has been reported for Cn1ccc([C@H]2CCNC[C@@H]2C(=O)N(Cc2cc(CCCC#N)cc(Cl)c2Cl)C2CC2)cc1=O ?
20

I am curious: what inhibition at 10 µM value has been reported for COCCCc1cc(CN(C(=O)[C@H]2CNCC[C@@H]2c2ccn(C)c(=O)c2)C2CC2)cc(-c2ccccc2)c1 ?
0

I am curious: what inhibition at 10 µM value has been reported for COCCCc1cc(CN(C(=O)[C@H]2CNCC[C@@H]2c2ccn(C)c(=O)c2)C2CC2)cc(OCCOC)c1 ?
0

[a] COCCCc1cc(CN(C(=O)[C@H]2CNCC[C@@H]2c2ccc(OCCOc3c(Cl)cc(C)cc3Cl)cc2)C2CC2)cc(OCCOC)c1
[b] COCCCc1cc(CN(C(=O)[C@H]2CNCC[C@@H]2c2cc(=O)n(C)c3cc(Cl)ccc23)C2CC2)cc(OCCOC)c1
[c] COC(=O)NCCc1cc(Cl)c(Cl)c(CN(C(=O)[C@H]2CNCC[C@@H]2c2ccn(C)c(=O)c2)C2CC2)c1
[d] COCCCc1cc(CN(C(=O)[C@H]2CNCC[C@@H]2c2ccccc2)C2CC2)cc(OCCOC)c1
# ascending order, key=inhibition at 10 µM Form field (ranking): labels in requested order.
d, b, a, c
(d: 0%, b: 4%, a: 27%, c: 56%)
